Where do the numbers come from? From PubChem BioAssay (NCI).

System: NCI-H460 lung
assay.info: NCI tumour cell line growth inhibition, 48 h

compound	TGI
CCCC(C(=O)Nc1cccc2[nH]cnc12)C(=O)OCC (centres undefined)	> 100 µM
NC(=O)c1ncn2c(=O)n(CCCl)nnc12	221 µM
CC[P+]1(c2ccccc2)CCCCC1	> 100 µM
O=C(NCCN(CCNC(=O)c1cccc(=O)n1O)CCNC(=O)c1cccc(=O)n1O)c1cccc(=O)n1O	> 100 µM
COc1cccc(CCn2c(N)c(C#N)c3ccc([N+](=O)[O-])cc3c2=O)c1	> 46.4 µM
CC(=O)OCC1=CC2CCC3C(C)(CCC[C@]3(C)COC(C)=O)C23CC[C@H]1C3 (some centres undefined)	> 100 µM
COC(=O)C(=O)C(C(C)=O)C(=O)C(=O)Nc1ccc(C)cc1C (centres undefined)	> 100 µM
C/C=C1/C(=Cc2[nH]c(C=c3[nH]/c(=C/C4=NC(=O)C(CC)=C4C)c(C)c3CCC(=O)O)c(CCC(=O)O)c2C)NC(=O)C1C (centres undefined)	40.6 µM
CN1N=C(c2ccccc2)c2cc(Cl)ccc2N=C1N/N=C/c1ccc(N(C)C)cc1	> 100 µM
CCS(=O)(=O)N1CCN(c2ccc(Nc3ncc(C(N)=O)c(NC4CC4)n3)cc2)CC1	59.9 µM
C(=C\c1ccc(OCC2CO2)cc1)/C1=NCOC1 (centres undefined)	57.7 µM
CCOC(=O)c1nc2cc(F)cc(F)c2[nH]c1=O	> 100 µM
CC(=O)[CH-]C(=O)c1ccccc1.CC(=O)[CH-]C(=O)c1ccccc1.CC(=O)[CH-]C(=O)c1ccccc1.[Br-].[Zr+4]	> 100 µM
CC(C)CC1NC(=O)CCC(NC(=O)C(Cc2ccc(O)cc2)NC(=O)OCc2ccccc2)C(=O)NC(Cc2ccccc2)C(=O)NC(Cc2ccccc2)NC1=O (centres undefined)	> 100 µM
COC(=O)[C@H](CCCCNC(=O)OCc1ccccc1)NC(=O)[C@@H](NC(=O)Nc1cc(C(F)(F)F)cc(C(F)(F)F)c1)C(C)C	> 10 µM
CC(=N/NC(N)=S)/C(C)=N/NC(N)=S	> 100 µM
COC1(OC)C2C=CC1C([C@](C)(N)CO)C2 (some centres undefined)	> 100 µM
COc1cc(C(=O)OC2CC34CCNC35CC(OC5(OC)C2O)c2cc3c(cc24)OCO3)ccc1O (centres undefined)	> 100 µM
COC(=O)[C@@H]1[C@H]2CC[C@]3(C)[C@@H](OC(C)=O)CC[C@H]3[C@@H]2CC[C@H]1C(C)=O	> 100 µM
Cc1cc(OCc2nn(CN3CCN(C)CC3)c(=S)n2/N=C/c2ccc(F)cc2)ccc1Cl	31.8 µM
CCOc1nc2sc3c(c2c(=O)n1CCSSCCn1c(OCC)nc2sc4c(c2c1=O)CCCC4)CCCC3	> 100 µM
COc1cc(/C=N/n2c(C)n[nH]c2=O)cc(OC)c1OC	> 100 µM
CCOC(=O)CCSC1=CC(=O)c2nc3ccccc3c3ccnc1c23	50.1 µM
COC(=O)C1=COC2OC3CC1C2C(C)O3 (centres undefined)	> 100 µM
CCC(=C(c1ccc(OCCN2CCCC2)cc1)c1ccc(OCCN2CCCC2)cc1)c1ccc(Cl)cc1	1.18 µM
Cc1nccn1CC1CCc2c(c3ccccc3n2C)C1=O (centres undefined)	68.1 µM
COC1OC(Cn2cc([N+](=O)[O-])nc2C)C(O)C(O)C1O (centres undefined)	> 100 µM
CC(=N\O)/C(C)=N/O.CC(=N\O)/C(C)=N/O.[Fe].[NH2-].c1c[nH]cn1	> 100 µM
CC(=O)c1ccc(Oc2c3ccccc3nc3occc23)cc1	> 100 µM
C=CCN1C(=O)CS/C1=N\NC(=O)CSc1nc2ccccc2c(=O)n1CC	44.4 µM
N#CCC(=O)Nc1ccccc1O	> 100 µM
CCOC(=O)c1cc2c(n1Cc1cc(OC)cc(OC)c1)-c1oncc1CC2	> 37.8 µM
NC(=O)NC(=O)c1cccc(NC(=O)CCl)c1	3.92 µM
COc1ccc(C2=NN(C(=O)c3ccc(Cl)cc3)C(O)(c3cc(F)c(Cl)cc3Cl)C2)cc1 (centres undefined)	> 100 µM

---

Tested on: MDA-MB-435
assay.info: NCI tumour cell line growth inhibition, 48 h

molecule	system.name	TGI
CC[Si](CC)(CC)OC1[C@@H](O[Si](CC)(CC)CC)[C@@H](CNC(=O)NC)O[C@H]1n1cnc2c(NC(=O)Nc3ccccc3)ncnc21 (stereo partly drawn)	MDA-MB-435	> 100 µM
COc1ccc(C2=NN(C(=O)c3ccc(Cl)cc3)C(O)(c3cc(F)c(Cl)cc3Cl)C2)cc1 (stereo not drawn)	MDA-MB-435	> 100 µM
CCOC(=O)/C(=C\c1c(C)[nH]c2ccccc12)P(=O)(OCC)OCC	MDA-MB-435	> 100 µM

---

Tested on: U251 CNS
assay.info: NCI tumour cell line growth inhibition, 48 h
Recorded TGI for the following compounds

molecule.smiles	inequality.operator	TGI, µM
c1cc2c3ccsc3c3sccc3c2s1	>	100
CCC(=C(c1ccc(OCCN2CCCC2)cc1)c1ccc(OCCN2CCCC2)cc1)c1ccc(Cl)cc1	=	1.14
CC(=O)c1cccc(Nc2nc3ccccc3c3[nH]c4ccccc4c23)c1	=	16.4

---

Tested on: PC-3 prostate
assay.info: NCI tumour cell line growth inhibition, 48 h
Quick list: TGI per entry.
metric.name: TGI

molecule	measurement
Cc1ccc(NC2=CC(=O)C(=O)c3ccccc32)cc1	15.7 µM
C1=Cc2cccc3occ(c23)C=C1	> 100 µM
N#CC(C#N)=Cn1c(=S)[nH]c2ccc([N+](=O)[O-])cc21	> 100 µM
CC(=O)c1cccc(Nc2nc3ccccc3c3[nH]c4ccccc4c23)c1	40.9 µM
CN1N=C(c2ccccc2)c2cc(Cl)ccc2N=C1N/N=C/c1ccc(N(C)C)cc1	> 100 µM
COc1ccc2[nH]c3c(O)c(-c4c(C)cc5c([nH]c6ccc(OC)cc65)c4O)c(C)cc3c2c1	7.69 µM
COC(=O)[C@H](CCCCNC(=O)OCc1ccccc1)NC(=O)[C@@H](NC(=O)Nc1cc(C(F)(F)F)cc(C(F)(F)F)c1)C(C)C	> 10 µM
CCOc1nc2sc3c(c2c(=O)n1CCSSCCn1c(OCC)nc2sc4c(c2c1=O)CCCC4)CCCC3	> 100 µM
COc1ccc(C2=NN(C(=O)c3ccc(Cl)cc3)C(O)(c3cc(F)c(Cl)cc3Cl)C2)cc1 (stereo not drawn)	> 100 µM
CCN1C/C(=C\c2ccc(Cl)cc2)c2[nH]c(=O)c(C#N)c(-c3ccc(Cl)cc3)c2C1	> 100 µM
CCC(C(=O)[C@@H](C)[C@@H](O)[C@H](C)[C@@H]1O[C@@H]([C@@H](CC)C(=O)ONC(=O)c2ccccc2)CC[C@@H]1C)[C@H]1O[C@]2(C=CC(=O)[C@]3(CC[C@@](C)([C@H]4CC[C@](O)(CC)[C@H](C)O4)O3)O2)[C@H](C)C[C@@H]1C (stereo partly drawn)	1.99 µM
CCS(=O)(=O)N1CCN(c2ccc(Nc3ncc(C(N)=O)c(NC4CC4)n3)cc2)CC1	> 100 µM
c1ccc2c(c1)[nH]c1c3ccccc3sc21	> 100 µM

---

Tested on: SF-539 CNS
assay.info: NCI tumour cell line growth inhibition, 48 h
The compounds listed here are annotated with their TGI.

compound	system.name	TGI
COC(=O)C1=COC2OC3CC1C2C(C)O3 (stereo not drawn)	SF-539 CNS	> 100 µM
COc1ccc2c(c1)C(=O)c1c-2n(CCCCl)c(=O)c2cc(N)ccc12	SF-539 CNS	> 100 µM
CCOC(=O)c1csc(-c2cn(C)c3c2C(=O)C(OC)=CC3=O)n1	SF-539 CNS	> 82.9 µM

---

Tested on: SK-MEL-2 melanoma
assay.info: NCI tumour cell line growth inhibition, 48 h
metric.name: TGI

molecule	measurement
CCCCCC(/C=C/c1ncccc1OCCCCCC(=O)O)=N\NC1=NCCN1	> 100 µM
COC(=O)/C(=N\N)C(C(=O)C(=O)Nc1nc(=S)[nH][nH]1)c1nc2ccc([N+](=O)[O-])cc2[nH]c1=O (stereo not given)	> 100 µM
O=C1C2C3C=C4c5ccccc5N(c5ccccc5)C4([C@@H]2C(=O)N1c1ccc(F)cc1)[C@H]1C(=O)N(c2ccc(F)cc2)C(=O)[C@@H]31 (stereo not given in full)	> 100 µM
c1ccc(COC[C@H]2C3OCC([C@H](OCc4ccccc4)[C@H]3OCc3ccccc3)N2Cc2ccccc2)cc1 (stereo not given in full)	> 100 µM
COc1cc2c(cc1O)C(=O)O[C@@H]1CC=C3CCN(C)[C@H]3[C@H]21	> 25 µM

---

System: CCRF-CEM leukemia
assay.info: NCI tumour cell line growth inhibition, 48 h
metric.name: GI50

molecule	metric.name	measurement
Cc1ccc(NC2=CC(=O)C(=O)c3ccccc32)cc1	GI50	5.62 µM
O=C(CCl)Nc1ccc(Cc2ccc(NC(=O)CCl)cc2)cc1	GI50	0.47 µM
C=CCN1C(=O)[C@]2(SC1=S)[C@H](c1cccc(Cl)c1)CN(C)[C@]21C(=O)NC2C=CC(Cl)=C[C@H]21 (stereo partly specified)	GI50	3.25 µM
C(=C\c1ccc(OCC2CO2)cc1)/C1=NCOC1 (stereo unspecified)	GI50	2.89 µM
COc1cc(/C=C/c2ccnc3ccccc23)cc(OC)c1OC	GI50	3.64 µM
COc1ccc(NC(=O)c2cccc(C3CCc4c(cc(OC)c(OC)c4OC)O3)c2)cc1 (stereo unspecified)	GI50	1.6 µM
C=C1C(O)C2CC(C)(C)C(=O)C2=C(CC(C)C)C12CC2 (stereo unspecified)	GI50	98.1 µM
CCOC(=O)c1ccc(NC(=O)c2cccc(NC3=C(Cl)C(=O)N(Cc4ccccc4)C3=O)c2)cc1	GI50	15.7 µM
C1=C\CCCCN2CC[C@H]3[C@H](CCCC/C=C\CCCN4C[C@@H](CCCCC/1)C[C@@H]3C4)C2	GI50	3.64 µM
N/C(=N/S(=O)(=O)c1cc(C(=O)Nc2ccc(F)cc2)c(Cl)cc1SCc1ccccc1)Nc1ccccc1O	GI50	1.81 µM
CC1(C)CN(CCNc2nccc(-c3c(-c4cccc(O)c4)nc4sccn34)n2)S(=O)(=O)N1	GI50	7.25 µM
